# Test system: Mycobacterium avium
# Condition details: isolate MAV3
Reported metric: MIC (µg/mL)
Numeric only. Scale: µg/mL

# compound CCCOc1ccc(-c2cn(CCN3CCCCC3)c3ccccc3c2=O)cc1 ; its MIC = 32

// recorded MIC for CSc1ccc2c(c1)N(CCC1CCCCN1C)c1ccccc1S2 (stereo not given) [THIORIDAZINE] : 128

The recorded MIC for CCCOc1ccc(-c2cn(CCN(CC)CC)c3ccccc3c2=O)cc1 is 128

get_value(item= CN(C)CCCN1c2ccccc2Sc2ccc(Cl)cc21 [CHLORPROMAZINE] , readout=MIC) returns 64

From here, focus on the item given below.
GET /value?item= CCCOc1ccc(-c2cn(CCN3CCCCCC3)c3ccccc3c2=O)cc1 &field=MIC returns 32

====

# System: Mycobacterium avium
# Condition details: 104 mc'2 3
Listed compounds paired with reported MIC
Enter your answer as a number in µg/mL; do not include the unit.

# example entries with known answers
So, CN(C)CCCN1c2ccccc2Sc2ccc(Cl)cc21 ? Its MIC was 4

Entry CSc1ccc2c(c1)N(CCC1CCCCN1C)c1ccccc1S2 (stereo not given) ; MIC = 4

Continuing:
Reported MIC for CCCOc1ccc(-c2cn(CCN(CC)CC)c3ccccc3c2=O)cc1 was 4

Reported MIC of CCCOc1ccc(-c2cn(CCN3CCCCCC3)c3ccccc3c2=O)cc1 : 2

// MIC lookup, compound = CCCOc1ccc(-c2cn(CCN3CCCCC3)c3ccccc3c2=O)cc1 , result: 2

====

# Test system: Mycobacterium avium
# Condition details: isolate MAV3
The following compounds are listed with their measured MIC values.
Answer format: numeric, µg/mL implied, no suffix.

Recorded MIC (compound CCCOc1ccc(-c2cn(CCN3CCCCCC3)c3ccccc3c2=O)cc1 ): 1

Documented MIC of CN(C)CCCN1c2ccccc2Sc2ccc(Cl)cc21 : 8

// sample CCCOc1ccc(-c2cn(CCN3CCCCC3)c3ccccc3c2=O)cc1 , its MIC was 4

The measured MIC associated with CCCOc1ccc(-c2cn(CCN(CC)CC)c3ccccc3c2=O)cc1 reads 4

Continuing:
Measured MIC of CSc1ccc2c(c1)N(CCC1CCCCN1C)c1ccccc1S2 (stereo not given) : 8

====

# System: Mycobacterium avium
# Condition details: isolate MAV4
Reported metric: MIC (µg/mL)
Please respond with the number in µg/mL and leave the unit unwritten.

Example compounds with recorded MIC:
MIC recorded for this compound, CSc1ccc2c(c1)N(CCC1CCCCN1C)c1ccccc1S2 (stereo not given) , is 64

Please fill in: MIC reported for CCCOc1ccc(-c2cn(CCN(CC)CC)c3ccccc3c2=O)cc1 = 8

Consider the additional compound presented here.
Looking up CN(C)CCCN1c2ccccc2Sc2ccc(Cl)cc21 , I see its MIC listed as 32

====

# Tested on: Mycobacterium avium
# Condition details: isolate MAV4
Reported metric: MIC (µg/mL)
# unit: µg/mL | format: bare number

Looking up CN(C)CCCN1c2ccccc2Sc2ccc(Cl)cc21 , I found its MIC recorded as 128

Continuing:
MIC in this record for CSc1ccc2c(c1)N(CCC1CCCCN1C)c1ccccc1S2 (stereo not given) : 256

Sure, the documented MIC for CCCOc1ccc(-c2cn(CCN3CCCCCC3)c3ccccc3c2=O)cc1 is 8

Recorded result, CCCOc1ccc(-c2cn(CCN(CC)CC)c3ccccc3c2=O)cc1 , MIC: 256

====

# Tested on: Mycobacterium avium
# Condition details: 104
Recorded MIC by entry

Record summary for CCCOc1ccc(-c2cn(CCN(CC)CC)c3ccccc3c2=O)cc1 : reported MIC = < 2 µg/mL

For CN(C)CCCN1c2ccccc2Sc2ccc(Cl)cc21 the molecule record lists MIC as < 4 µg/mL

====

# System: Mycobacterium avium
# Condition details: 104
# Description: Inhibition of multidrug resistance efflux pump in Mycobacterium avium 104 assessed as potentiation of clarithromycin -induced antibacterial activity by measuring clarithromycin MIC at 1/4 MIC incubated for 3 days by MTT assay
Reported MIC is given for each of the following molecules.
Field format: number, assumed µg/mL, no unit text.

Noted for CCCOc1ccc(-c2cn(CCN(CC)CC)c3ccccc3c2=O)cc1 : its MIC reads 1

Data point: CSc1ccc2c(c1)N(CCC1CCCCN1C)c1ccccc1S2 (stereo not given) ; MIC = 4

Value of MIC reported for the molecule CN(C)CCCN1c2ccccc2Sc2ccc(Cl)cc21 is 4

We next turn to a different molecule, shown below.
Summary for this molecule, CCCOc1ccc(-c2cn(CCN3CCCCCC3)c3ccccc3c2=O)cc1 : MIC is 1

====

# Test system: Mycobacterium avium
# Condition details: in vivo, 72 h
# Description: Antimycobacterial activity against Mycobacterium avium 104 mc'2 4 assessed as reduction in bacterial viability incubated for 3 days by MTT assay
Reported metric: MIC (µg/mL)
Answer with a number only, understood to be in µg/mL.

Record excerpt, results attached:
Record CC1COc2c(N3CCN(C)CC3)c(F)cc3c(=O)c(C(=O)O)cn1c23 (configuration not stated) . Reported MIC: 16

MIC for CCCOc1ccc(-c2cn(CCN3CCCCCC3)c3ccccc3c2=O)cc1 is 256

Query CC[n+]1c(-c2ccccc2)c2cc(N)ccc2c2ccc(N)cc21.[Br-] [HOMIDIUM BROMIDE] yields MIC of 25

Entry CCCOc1ccc(-c2cn(CCN(CC)CC)c3ccccc3c2=O)cc1 ; MIC = 256

For O=C(O)c1cn(C2CC2)c2cc(N3CCNCC3)c(F)cc2c1=O the compound record lists MIC as 16

For record CN(C)CCCN1c2ccccc2Sc2ccc(Cl)cc21 the listed MIC is 30

Item: COc1ccc(CCN(C)CCCC(C#N)(c2ccc(OC)c(OC)c2)C(C)C)cc1OC (configuration not stated) | MIC: 800

Measured MIC of CCCOc1ccc(-c2cn(CCN3CCN(Cc4ccccc4)CC3)c3ccccc3c2=O)cc1 : 256

---
For reference, reported MIC for CSc1ccc2c(c1)N(CCC1CCCCN1C)c1ccccc1S2 (configuration not stated) stands at 30

Record CCCOc1ccc(-c2cn(CCN3CCCCC3)c3ccccc3c2=O)cc1 . Reported MIC: 256

====

# Tested on: Mycobacterium avium
# Condition details: isolate MAV4
Reported metric: MIC (µg/mL)
Please respond with the number in µg/mL and leave the unit unwritten.

The recorded MIC for CSc1ccc2c(c1)N(CCC1CCCCN1C)c1ccccc1S2 (stereo not given) is 12.5

Continuing:
What the record says about CCCOc1ccc(-c2cn(CCN(CC)CC)c3ccccc3c2=O)cc1 : MIC is 6.25

Looking up CN(C)CCCN1c2ccccc2Sc2ccc(Cl)cc21 , I see its MIC listed as 3.12

====

# Test system: Mycobacterium avium
# Condition details: isolate MAV2
# Description: Inhibition of multidrug resistance efflux pump in Mycobacterium avium isolate MAV2 assessed as potentiation of ofloxacin-induced antibacterial activity by measuring ofloxacin MIC at 1/2 MIC incubated for 3 days by MTT assay
Here the recorded MIC is given for each entry.
Please respond with the number in µg/mL and leave the unit unwritten.

Query CCCOc1ccc(-c2cn(CCN(CC)CC)c3ccccc3c2=O)cc1 yields MIC of 1

---
So for CCCOc1ccc(-c2cn(CCN3CCCCCC3)c3ccccc3c2=O)cc1 , the logged MIC turned out to be 2

So, CSc1ccc2c(c1)N(CCC1CCCCN1C)c1ccccc1S2 (stereo not given) [THIORIDAZINE] ? Its MIC was 0.5

Notebook: CN(C)CCCN1c2ccccc2Sc2ccc(Cl)cc21 [CHLORPROMAZINE] , MIC read as 1

# MIC of CCCOc1ccc(-c2cn(CCN3CCCCC3)c3ccccc3c2=O)cc1 = 2

====

# System: Mycobacterium avium
# Condition details: in vivo, 72 h
# Description: Antimycobacterial activity against Mycobacterium avium 104 mc'2 3 assessed as reduction in bacterial viability incubated for 3 days by MTT assay
Known MIC of a selection of molecules

Record summary for CC[C@H]1OC(=O)[C@H](C)[C@@H](O[C@H]2C[C@@](C)(OC)[C@@H](O)[C@H](C)O2)[C@H](C)[C@@H](O[C@@H]2O[C@H](C)C[C@H](N(C)C)[C@H]2O)[C@](C)(O)C[C@@H](C)CN(C)[C@H](C)[C@@H](O)[C@]1(C)O : reported MIC = > 512 µg/mL

Data point: COc1ccc(-c2coc3cc(O)cc(O)c3c2=O)cc1 ; MIC = > 64 µg/mL

Others:
Entry CC[n+]1c(-c2ccccc2)c2cc(N)ccc2c2ccc(N)cc21.[Br-] [HOMIDIUM BROMIDE] ; MIC = 25 µg/mL

====

# System: Mycobacterium avium
# Condition details: isolate MAV2
Reported metric: MIC (µg/mL)
Write the number in µg/mL without appending the unit.

These recorded examples may help you get a feel for the data.
Item: CSc1ccc2c(c1)N(CCC1CCCCN1C)c1ccccc1S2 (stereo not given) | System: Mycobacterium avium | MIC: 512

CCCOc1ccc(-c2cn(CCN(CC)CC)c3ccccc3c2=O)cc1 on Mycobacterium avium gives MIC = 16

Considering CCCOc1ccc(-c2cn(CCN3CCCCC3)c3ccccc3c2=O)cc1 , its MIC with Mycobacterium avium was recorded as 256

Moving on to the next molecule.
Entry CCCOc1ccc(-c2cn(CCN3CCCCCC3)c3ccccc3c2=O)cc1 ; assay system Mycobacterium avium; MIC recorded at 32

====

# Tested on: Mycobacterium avium
# Assay: Antimycobacterial activity against Mycobacterium avium isolate MAV3 assessed as reduction in bacterial viability incubated for 3 days by MTT assay
# Type: organism-based
# Condition details: 72 h
Reported metric: MIC (µg/mL)
Kindly answer with a numeric value in µg/mL, unit omitted.

The examples below pair each entry with its known result.
Reported MIC ( CSc1ccc2c(c1)N(CCC1CCCCN1C)c1ccccc1S2 (stereo unspecified) ) = 30

The reported value for CC[n+]1c(-c2ccccc2)c2cc(N)ccc2c2ccc(N)cc21.[Br-] [HOMIDIUM BROMIDE] in terms of MIC is 12.5

Kindly note the recorded MIC for CCCOc1ccc(-c2cn(CCN(CC)CC)c3ccccc3c2=O)cc1 , which is 128

GET /value?item= CC[C@H]1OC(=O)[C@H](C)[C@@H](O[C@H]2C[C@@](C)(OC)[C@@H](O)[C@H](C)O2)[C@H](C)[C@@H](O[C@@H]2O[C@H](C)C[C@H](N(C)C)[C@H]2O)[C@](C)(OC)C[C@@H](C)C(=O)[C@H](C)[C@@H](O)[C@]1(C)O &field=MIC returns 16

Lookup result for CCCOc1ccc(-c2cn(CCN3CCCCCC3)c3ccccc3c2=O)cc1 ; measured MIC: 128

Shift focus to the following entry.
# MIC (molecule: O=C(O)c1cn(C2CC2)c2cc(N3CCNCC3)c(F)cc2c1=O ) is 32
